FYI, the data here is from PubChem BioAssay AID1508600.

Consider the following sequences; for each one, report its z-score.
# ASSAY OVERVIEW: Components of the Cytosolic LPS Sensing Pathway: Gene Identification via Genome-wide siRNA Screen
# STATED CONDITIONS: RAW264.7 macrophages, IL-1a HTRF, actives lie on both sides, screened at 100 nM (by protocol), cells primed 5 h with Pam3CSK4 first
The whole screen tested about 53,000 sequences, of which about 3,700 (7%) were called active. The full list was thinned out, with actives kept by preference.
Answer with the value's number alone.

Respond only with z-score recorded for GGUAUUGGAUCAUUUACAATT against Nae1
-0.0968

Respond only with z-score recorded for GGUGGUUCUGGUGUACAGUTT against Nxf1
-1.98

Respond only with z-score recorded for GGAAAUAUAUCUGAAAGGGTT against Sphkap
0.514

Respond only with z-score recorded for GCCUGCCUACGAGAUCAACTT against Mgp
-0.0804

Respond only with z-score recorded for GGGCCCGAUGAAGCAAAAATT against Hnrnpr
-1.49

Respond only with z-score recorded for CCAUGUCAACGACCAUCAUTT against Glis2
0.189

Respond only with z-score recorded for GGCCUCAGCUCACAACAAATT against Sf3b4
-1.71

Respond only with z-score recorded for GGAGGAGUUUCGCUACGGATT against Sars2
-0.00587

Respond only with z-score recorded for CCAUAUUGAAACCUCAUUUTT against Fam126a
-2.33

Respond only with z-score recorded for GGUAAAGCCUUUCAGGAAGTT against Tmem80
-0.946

Respond only with z-score recorded for GCGAGUUGUUUCCAUAGUUTT against Gpr22
-0.388

Respond only with z-score recorded for GGAGCGAGAAGGUAAAGUCTT against Pibf1
1.05

* * *

# ASSAY OVERVIEW: Components of the Cytosolic LPS Sensing Pathway: Gene Identification via Genome-wide siRNA Screen
# STATED CONDITIONS: RAW264.7 macrophages, IL-1a HTRF, actives lie on both sides, screened at 100 nM (by protocol), cells primed 5 h with Pam3CSK4 first
# Procedure: Non-canonical inflammasome activation by cytosolic LPS is a critical component of the host response to Gram-negative bacterial infection, however we lack a comprehensive understanding of the cellular processes that control this pathway. […] Lipofectamine RNAiMAX Transfection Reagent ([…]; Invitrogen) was added in […] serum-free, antibiotic-free media to plate wells using a Thermo Scientific Matrix WellMate and Microplate Stacker. […] The plates were read on an EnVision plate reader (PerkinElmer). […]
Hit rate of the full screen: of about 53,000 sequences, about 3,700 (7%) were called active. The entries come from a sample that favours actives as a whole.
Consider the following sequences; for each one, report its z-score.
Answer with the value's number alone.

Respond only with z-score recorded for GGUCAUCCUUGCCAAUCUCTT against Olfr686
-2.11

Respond only with z-score recorded for CCUUAUAAGAAAGAUAGACTT against Nhlrc2
-0.591

Respond only with z-score recorded for GGCAGGAGAUGGUAACUGCTT against Phc2
1.08

Respond only with z-score recorded for GGGCCAAGGAAGAACUUCATT against Clec12a
-0.655

Respond only with z-score recorded for GGCUUCCCGGAGUAACAAUTT against Dlgap1
-0.742

Respond only with z-score recorded for GCUGGGUGAUAAACAAUGUTT against Rhbg
3.42

Respond only with z-score recorded for GGUACUCUCAUUAUCUUUCTT against Tlr8
-0.217

Respond only with z-score recorded for GGCAUGGACAUUGAUGACATT against Dnajb1
-0.834

Respond only with z-score recorded for CCAUCUGCAUCAAGAGAAATT against Kirrel2
0.709

Respond only with z-score recorded for GGCAGAAACGUGGACUAAATT against Mmp12
-1.29

Respond only with z-score recorded for GCCAAAAAGUGUGUGUUGGTT against Olfr731
0.0799

Respond only with z-score recorded for CCAACGCGCACGGCCGCGCTT against Tmem158
-0.359

* * *

# ASSAY OVERVIEW: Components of the Cytosolic LPS Sensing Pathway: Gene Identification via Genome-wide siRNA Screen;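 note: robust z of the log signal after scaling to non-targeting control siRNA wells of the plate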
# STATED CONDITIONS: RAW264.7 macrophages, IL-1a HTRF, actives lie on both sides, screened at 100 nM (by protocol), cells primed 5 h with Pam3CSK4 first
Screen size: about 53,000 sequences; about 3,700 (7%) were called active. This is one part of a sample in which actives are shown more often than they occur.
Outcome label depends on z-score relative to -0.8: at/above gives Condition met, below gives Condition not met.

Check the entry GCUGUCGACUUUAAAAGGUTT against Pcdhga7 : does z-score equal or exceed -0.8?
Condition met

Check the entry GGUCCAGUGAAAUAAUAUCTT against Orc3 : does z-score equal or exceed -0.8?
Condition met

Check the entry CGAUGUUGAGGGAUUAUCUTT against Tstd2 : does z-score equal or exceed -0.8?
Condition not met

Check the entry GGAAAGAAUCCACUUGCAUTT against Xkr5 : does z-score equal or exceed -0.8?
Condition not met

Check the entry CCUGUUAAACAGGACUAGUTT against Tmem263 : does z-score equal or exceed -0.8?
Condition not met

Check the entry GGAAAAAAUCACAUUGACUTT against H2ac6 : does z-score equal or exceed -0.8?
Condition not met

* * *

# ASSAY OVERVIEW: Components of the Cytosolic LPS Sensing Pathway: Gene Identification via Genome-wide siRNA Screen;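 note: robust z of the log signal after scaling to non-targeting control siRNA wells of the plate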
# STATED CONDITIONS: RAW264.7 macrophages, IL-1a HTRF, actives lie on both sides, screened at 100 nM (by protocol), cells primed 5 h with Pam3CSK4 first
Screen size: about 53,000 sequences; about 3,700 (7%) were called active. The sample as a whole holds a higher share of actives than the screen did.
REPORTED PROPERTY: z-score
Answer with the value's number alone.

Respond only with z-score recorded for GGCAGUAAUAGGAGACCAUTT against Ces1d
2.76

Respond only with z-score recorded for CCCGUUGCUUUAGAGCUCUTT against Dph2
0.912

Respond only with z-score recorded for CCAAGAAAAGUCCAGAAGCTT against Rorb
0.379

Respond only with z-score recorded for CCAAUUGAAACUCUUUUCCTT against Thada
0.562

Respond only with z-score recorded for GGAUUAGCCUGGUCCUUUUTT against Dusp14
0.989

Respond only with z-score recorded for CGGACAAGUGUUUUUCGUUTT against Wwox
0.315

Respond only with z-score recorded for GGAAAUAGAGGAAAGAGAATT against Rbm17
-0.235

Respond only with z-score recorded for GCAGUAGCGACGAAGGAUGTT against Rnf113a2
-2.12

Respond only with z-score recorded for GGCAAUUGUCUCAUUCUGATT against Olfr631
0.806

Respond only with z-score recorded for CGCUGCUAAGAAUCAUCUATT against Ednrb
0.287

Respond only with z-score recorded for CCUCCAGUUCAGAAUUCUATT against Surf4
0.634

Respond only with z-score recorded for GGACUGAAGUGAAAUAAAUTT against Trav13-5
-0.949

* * *

# ASSAY OVERVIEW: Components of the Cytosolic LPS Sensing Pathway: Gene Identification via Genome-wide siRNA Screen;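 note: robust z of the log signal after scaling to non-targeting control siRNA wells of the plate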
# STATED CONDITIONS: RAW264.7 macrophages, IL-1a HTRF, actives lie on both sides, screened at 100 nM (by protocol), cells primed 5 h with Pam3CSK4 first
Hit rate of the full screen: of about 53,000 sequences, about 3,700 (7%) were called active.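 Rule for the calls: active = gene knockdowns whose robust z-score for IL-1 alpha signal is at least 2 or at most -2, so actives lie on both sides; inactive = the rest.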 The entries come from a sample that favours actives as a whole.
Pick one: active, inactive

Which outcome was assigned to CCAUGUGUCAAACUACCGGTT against Rbmx2 in this test?
active

Which outcome was assigned to UACUAGCAGAUUAACCACCTT against H2bc4 in this test?
inactive

Which outcome was assigned to GGGAGAGUGGAUCAUCAAUTT against P2ry10 in this test?
inactive

Which outcome was assigned to CCUAGGAUAGAGAUUGUUGTT against Ndufaf3 in this test?
inactive

Which outcome was assigned to GGGCAAAUCCUUUAGUUUGTT against Siae in this test?
inactive

Which outcome was assigned to GGAACAGAGAUAUGAAACATT against Olfr738 in this test?
active

Which outcome was assigned to GCCAUAAGAUGCUACAGUGTT against Tubb6 in this test?
inactive

Which outcome was assigned to GCCAGUCAUUCAGUAAAGUTT against Mysm1 in this test?
inactive

Which outcome was assigned to GCGAUAUGACAGACUCUUCTT against Csrnp1 in this test?
inactive

Which outcome was assigned to GGAUUCUAGGAGAGAAUCATT against Cplx3 in this test?
inactive

Which outcome was assigned to CCAUUCCUACAGCAUGCGUTT against Slc27a1 in this test?
inactive

Which outcome was assigned to GCUGAACAUUAGCUUCAAUTT against Lrrc9 in this test?
inactive

* * *

# ASSAY OVERVIEW: Components of the Cytosolic LPS Sensing Pathway: Gene Identification via Genome-wide siRNA Screen;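 note: robust z of the log signal after scaling to non-targeting control siRNA wells of the plate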
# STATED CONDITIONS: RAW264.7 macrophages, IL-1a HTRF, actives lie on both sides, screened at 100 nM (by protocol), cells primed 5 h with Pam3CSK4 first
The campaign covered roughly 53,000 sequences. About 3,700 (7%) were called active.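 Rule for the calls: active = gene knockdowns whose robust z-score for IL-1 alpha signal is at least 2 or at most -2, so actives lie on both sides; inactive = the rest.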 The sample as a whole holds a higher share of actives than the screen did.
Pick one: label 1 = active, label 0 = inactive

Which outcome was assigned to GGCGGCACAAAUUGUUUUUTT against Gimap9 in this test?
label 1

Which outcome was assigned to GGCAAGGAUUUUUCUACCUTT against Tslp in this test?
label 0

Which outcome was assigned to GGAUACCCUGCUUCCAAAATT against Hpd in this test?
label 1

Which outcome was assigned to CCUGGUAAAAGACUGGGCUTT against Dnal1 in this test?
label 0

Which outcome was assigned to CGCAUAUAUGUGUGUCGCCTT against Tmem125 in this test?
label 0

Which outcome was assigned to GGUUGGAUUCCUGAUAUUATT against Moxd2 in this test?
label 0

Which outcome was assigned to GGAUAAAAGCAUUUGAGUCTT against Acp1 in this test?
label 0

Which outcome was assigned to GGAGCUGACAGAGAGAUUCTT against Ankrd40 in this test?
label 1

Which outcome was assigned to GGAUCCAUUUUGAGGAUUUTT against Vipr1 in this test?
label 0

Which outcome was assigned to GCAGUCGCUUUGUUUUAUATT against Olfr1204 in this test?
label 0

Which outcome was assigned to GGAACAUUGACCAGAUAGUTT against Ankrd44 in this test?
label 0

Which outcome was assigned to GGAAUAUCCGUAAUAACUATT against Grin2b in this test?
label 1
